tested on: Streptococcus suis P1/7; assay: percent growth relative to DMSO control; higher = less growth inhibition; conditions: 10 µM; incubation time 18 h
List of percent growth values.

COMPOUND: Cc1cc(C2=NOC(c3cc(Cl)c(F)c(Cl)c3)(C(F)(F)F)C2)ccc1C(=O)NCc1ccc2c(c1)C(C)(C)OB2O (centres undefined)
SYSTEM UNDER TEST: Streptococcus suis P1/7
percent growth: 61.5%
//
COMPOUND: CC1(C)OB(O)c2ccc(C3=NOC(c4cc(Cl)c(F)c(Cl)c4)(C(F)(F)F)C3)cc21 (centres undefined)
SYSTEM UNDER TEST: Streptococcus suis P1/7
percent growth: 0.819%
//
COMPOUND: CCc1nn(C)c(C(=O)NCc2ccc(Oc3ccc(C)cc3)cc2)c1Cl
SYSTEM UNDER TEST: Streptococcus suis P1/7
percent growth: 91.4%
//
COMPOUND: Cc1cccc(C(=O)Nc2ccnc(N(C)C3CCN(CC(C)C)CC3)c2)c1
SYSTEM UNDER TEST: Streptococcus suis P1/7
percent growth: 67.9%
//
COMPOUND: CO/C=C(/C(=O)OC)c1ccccc1Oc1cc(Oc2ccccc2C#N)ncn1
SYSTEM UNDER TEST: Streptococcus suis P1/7
percent growth: 80.8%
//
COMPOUND: O=C1O[C@@H](COc2ccon2)CN1c1cc(F)c(C2=CCN(Cc3ccccc3)CC2)c(F)c1
SYSTEM UNDER TEST: Streptococcus suis P1/7
percent growth: -0.108%
//
COMPOUND: CC1COC(Cn2cncn2)(c2ccc(Oc3ccc(Cl)cc3)cc2Cl)O1 (centres undefined)
SYSTEM UNDER TEST: Streptococcus suis P1/7
percent growth: 82.9%
//
COMPOUND: Cc1nn(Cc2ccccc2)c(Cl)c1C(=O)NC1CCCCCC1
SYSTEM UNDER TEST: Streptococcus suis P1/7
percent growth: 93.1%
//
COMPOUND: O=C1O[C@@H](CO)CN1c1cc(F)c(C2=CCN(Cc3ccccc3)CC2)c(F)c1
SYSTEM UNDER TEST: Streptococcus suis P1/7
percent growth: 13.5%

###

tested on: Streptococcus suis HE06; assay: percent growth relative to DMSO control; higher = less growth inhibition; settings: 10 µM; incubation time 18 h
OBSERVABLE: percent growth (%)

MOLECULE: CO[C@@H]1CN(c2ccc(C#CC3(O)CN4CCC3CC4)c(Cc3ccccc3)n2)C[C@H]1O (stereo not given in full)
UNIT TAG: %
EXPERIMENTAL RESULT: 108
--
MOLECULE: CC1(C)OB(O)c2ccc(C3=NOC(c4cc(Cl)c(F)c(Cl)c4)(C(F)(F)F)C3)cc21 (stereo not given)
UNIT TAG: %
EXPERIMENTAL RESULT: 15.4
--
MOLECULE: Nc1c2c(nc3sc4c(c13)CCCC4)CCCC2
UNIT TAG: %
EXPERIMENTAL RESULT: 76.3
--
MOLECULE: Cc1nn(Cc2ccccc2)c(Cl)c1C(=O)NC1CCCCCC1
UNIT TAG: %
EXPERIMENTAL RESULT: 107
--
MOLECULE: CC1COC(Cn2cncn2)(c2ccc(Oc3ccc(Cl)cc3)cc2Cl)O1 (stereo not given)
UNIT TAG: %
EXPERIMENTAL RESULT: 77

###

List of percent growth values.
tested on: Streptococcus suis HE06; assay: percent growth relative to DMSO control; higher = less growth inhibition; details: 10 µM; incubation time 18 h
OBSERVABLE: percent growth (%)

SMILES REPR: O=C1O[C@@H](CO)CN1c1cc(F)c(C2=CCN(Cc3ccccc3)CC2)c(F)c1
EXPERIMENTAL RESULT: 3.88

SMILES REPR: Cc1cccc(C(=O)Nc2ccnc(N(C)C3CCN(CC(C)C)CC3)c2)c1
EXPERIMENTAL RESULT: 95.9

SMILES REPR: O=C1O[C@@H](COc2ccon2)CN1c1cc(F)c(C2=CCN(Cc3ccccc3)CC2)c(F)c1
EXPERIMENTAL RESULT: 2.62

SMILES REPR: CO/N=C(\C(=O)OC)c1ccccc1CO/N=C(\C)c1cccc(C(F)(F)F)c1
EXPERIMENTAL RESULT: 102
